# reported growth; entries follow
Tested on: SK-MEL-5 melanoma
Assay: NCI-60 one-dose screen, 48 h (100 = growth as untreated, 0 = no growth, -100 = all killed)
Settings: 10 µM
Protocol: Growth inhibition of the SK-MEL-5 human tumor cell line is measured as a screen for anti-cancer activity. Cells are grown in 96 well plates and exposed to the test compound for 48 hours. Compounds are tested at a single concentration, which is 10^-5 M for most compounds. The reported endpoint is percent growth (GI% or GIPRCNT), where numbers from 0 - 100% represent growth inhibition, and numbers from -100% - 0 represent cell death. For example, a value of 40 represents 60% growth inhibition. […]
About 83,000 compounds went through this panel and 20% of them were active in at least one assay; those are over-represented in the sample as a whole.
measurement-label: growth (%)

1. N=c1nc(N)ncn1-c1ccccc1    102
2. COc1cc(-c2cc(/C=C3\C(=O)Nc4cc(Cl)ccc43)[nH]n2)cc(OC)c1OC    -49.5
3. CCOC(=O)C(CSC(c1ccccc1)(c1ccccc1)c1ccccc1)NC(=O)C(CSC(c1ccccc1)(c1ccccc1)c1ccccc1)NC(c1ccccc1)(c1ccccc1)c1ccccc1 (stereo not drawn)    98.6
4. O=C1NC(=O)c2ncccc21    95.1
5. CCN(CC)CCN1CC(=O)Nc2cc(Cl)ccc21    98.6
6. COc1ccc(-c2nc3sc(-c4ccc(OC)cc4)c(-c4ccc(OC)cc4)n3c2/C=C/c2ccc(C(C)C)cc2)cc1    99.9
7. COc1cc(/C=N/NC(=O)c2ccccc2Nc2ccnc(C(F)(F)F)c2)ccc1O    106
8. CN1CC[C@@H](c2c(O)cc(O)c3c(=O)cc(-c4ccccc4Cl)oc23)[C@@H](O)C1    -38.5
9. CC(=O)c1nc2ccccc2n1CCNC(N)=O    82.7
10. O=C(CC(C(=O)c1ccccc1)N1CCOCC1)c1ccccc1 (stereo not drawn)    95.5
11. Clc1cc2c(c(CSc3nc4ccccc4n4cccc34)c1)OCOC2    83.7
12. NC1(C(=O)O)CSSC1    69.9
13. CCOCCOCCOCCOCCOCCOCCOCCOCCOCCO (tested in a mixture with another compound)    -81.6

src = PubChem BioAssay (NCI)
